Method Notes: Study A16 Part 1: PK of single ascending oral doses of fospropofol disodium (200 to 2000 mg), fasted healthy adults
Format: in vivo, human
Condition Info: both sexes, human, plasma; oral fospropofol disodium 1000 mg; mean, n = 9
Recorded Endpoint: half-life

input_smiles=CC(C)c1cccc(C(C)C)c1O val="2.02 h"

----------
Method Notes: Study A16 Part 1: PK of single ascending oral doses of fospropofol disodium (200 to 2000 mg), fasted healthy adults
Assay type: in vivo, human
Condition Info: both sexes, human, plasma, oral, 200 mg, Propofol Cmax (geometric mean, n=10), after a single 200-mg capsule
Recorded Endpoint: Cmax (ng/mL)

input_smiles=CC(C)c1cccc(C(C)C)c1O result_units=ng/mL val=61.7
